read-out: Monokine induced gamma interferon (MIG), CXCL9 (gene 4283); test: BSK_hDFCGF_MIG: BioMAP Diversity Plus: hDFCGF Assay for Monokine induced gamma interferon (MIG) Biomarker Activity (AID 2283063); conditions: primary human foreskin fibroblasts; actives raise or lower the signal
Activity calls are given as the source filed them. Rule for the calls: active = hit-call score of the fitted dose curve at least 0.9, where 1 is the maximum; inactive = score below 0.9.
Permitted responses: T = active, F = inactive

Returns: the outcome recorded for CCOc1nc(F)cc2nc(S(=O)(=O)Nc3c(Cl)cccc3C(=O)OC)nn12 in this assay.
F

* * *

Record form. Attribute: AC50. Fill in for each entry.
assay: BSK_BT_Bcell_Proliferation: Viability Assessment in the BioMAP Diversity Plus: BT Assay for B cell Proliferation (AID 2284227); conditions: primary human B cells with PBMC
Calls of active or inactive are those of the source. How the source made its calls: active means hit-call score of the fitted dose curve at least 0.9, where 1 is the maximum; inactive means score below 0.9.

For this molecule ( S=C(NC1CCCCC1)NC1CCCCC1 ), measured AC50 is 31.2 µM (active)

For this molecule ( CCCCC/C=C\C/C=C\CCCCCCCC(=O)OC ), measured AC50 is 26.3 µM (active)

Next:
For this molecule ( CCCCCCCCCCCCCCCC[N+](C)(C)CC ), measured AC50 is 1.81 µM (active)
